target: RBL-1 Cell Cyclooxygenase (Rattus norvegicus, UniProt Q63921); construct: the supernatant was saved as the source of enzymes; endogenous in cells; test: Procedure II: cyclooxygenase inhibition in disrupted RBL-1 cells (supernatant as enzyme source); conditions: read-out: IC50 CO (Procedure II)
Sequence (Q63921 27-602): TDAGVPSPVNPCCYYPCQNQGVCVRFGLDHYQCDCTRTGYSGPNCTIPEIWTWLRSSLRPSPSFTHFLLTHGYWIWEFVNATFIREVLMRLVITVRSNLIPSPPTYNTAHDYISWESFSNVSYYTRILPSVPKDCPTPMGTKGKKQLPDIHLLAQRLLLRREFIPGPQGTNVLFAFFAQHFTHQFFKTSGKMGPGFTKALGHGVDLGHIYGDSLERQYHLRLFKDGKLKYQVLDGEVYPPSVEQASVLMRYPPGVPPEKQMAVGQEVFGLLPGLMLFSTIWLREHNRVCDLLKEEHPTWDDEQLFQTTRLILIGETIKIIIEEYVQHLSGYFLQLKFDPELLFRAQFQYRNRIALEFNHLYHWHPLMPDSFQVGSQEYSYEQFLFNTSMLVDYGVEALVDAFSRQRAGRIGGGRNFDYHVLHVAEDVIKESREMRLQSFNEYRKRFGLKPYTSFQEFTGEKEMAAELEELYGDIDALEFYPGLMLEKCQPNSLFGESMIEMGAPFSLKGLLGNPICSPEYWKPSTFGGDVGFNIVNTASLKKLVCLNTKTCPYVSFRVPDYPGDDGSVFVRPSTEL
pIC50: −log10 of the molar value.
Could you label it satisfied if measured pIC50 is 6 or higher, and not satisfied otherwise?

input: Is the recorded value of pIC50 equal to or greater than 6 for this molecule? COc1ccc(-n2nc(COC(=O)NO)cc2-c2ccc(C)cc2)cc1 [1-J]
output: satisfied

input: hey, is pIC50 for this one >= 6? COc1ccc(-n2nc(COC(=O)N(C)O)c(Br)c2-c2ccc(Cl)cc2)cc1 [1-E]
output: satisfied

input: Reported pIC50 at or above 6? COc1ccc(-n2nc(CCCOC(=O)N(C)O)c(Cl)c2-c2ccc(Cl)cc2)cc1 [3-D]
output: not satisfied

input: Is pIC50 at least 6? Consider COc1ccc(-n2nc(COC(=O)N(C)O)c(Cl)c2-c2ccc(Cl)cc2)cc1 [1-H]
output: satisfied

input: I'd appreciate it if you could say whether COc1ccc(-n2nc(CCOC(=O)N(C)O)cc2-c2ccc(Cl)cc2)cc1 [2-A] has pIC50 at least equal to 6.
output: not satisfied

input: Exam item: decide whether the reported pIC50 for COc1ccc(-n2nc(CCCOC(=O)N(O)C(C)C)c(Cl)c2-c2ccc(Cl)cc2)cc1 [3-E] is at least 6.
output: not satisfied

----------
Target: RBL-1 Cell 5-Lipoxygenase (Rattus norvegicus, UniProt P12527)
Construct: the supernatant was saved as the source of enzymes; endogenous in cells
Sequence (P12527 1-673): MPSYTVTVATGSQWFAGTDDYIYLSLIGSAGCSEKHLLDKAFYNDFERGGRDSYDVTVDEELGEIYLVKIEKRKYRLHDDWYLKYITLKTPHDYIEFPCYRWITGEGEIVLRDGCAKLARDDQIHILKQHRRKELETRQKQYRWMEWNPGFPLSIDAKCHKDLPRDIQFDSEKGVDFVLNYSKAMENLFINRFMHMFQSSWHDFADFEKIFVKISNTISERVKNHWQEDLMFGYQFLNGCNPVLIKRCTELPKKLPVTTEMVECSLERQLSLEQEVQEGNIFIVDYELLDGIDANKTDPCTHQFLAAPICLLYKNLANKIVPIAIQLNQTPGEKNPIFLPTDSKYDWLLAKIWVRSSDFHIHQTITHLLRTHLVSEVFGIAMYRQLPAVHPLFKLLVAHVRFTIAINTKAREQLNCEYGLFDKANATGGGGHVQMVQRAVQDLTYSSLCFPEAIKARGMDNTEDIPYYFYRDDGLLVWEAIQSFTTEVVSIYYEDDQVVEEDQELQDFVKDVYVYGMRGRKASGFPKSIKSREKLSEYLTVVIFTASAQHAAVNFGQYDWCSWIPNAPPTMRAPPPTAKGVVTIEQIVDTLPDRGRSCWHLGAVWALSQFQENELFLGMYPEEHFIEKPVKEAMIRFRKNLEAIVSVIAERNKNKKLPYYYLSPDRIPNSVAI
Experiment: Procedure II: 5-lipoxygenase inhibition in disrupted RBL-1 cells (supernatant as enzyme source)
Conditions: read-out: IC50 5-LO (Procedure II)
Just a reminder that ties go to No: only IC50 strictly below 0.1 µM counts as Yes.

input: Determine if COc1ccc(-n2nc(CCCOC(=O)N(C)O)c(Br)c2-c2ccc(Cl)cc2)cc1 [3-F] shows IC50 strictly lower than 0.1 µM.
output: Yes

input: IC50 strictly < 0.1 µM for this molecule? COc1ccc(-n2nc(CCCOC(=O)N(O)C(C)C)cc2-c2ccc(Cl)cc2)cc1 [3-C]
output: Yes

input: Does the reported IC50 of COc1ccc(-n2nc(CCOC(=O)N(C)O)cc2-c2ccc(Cl)cc2)cc1 [2-A] stay below 0.1 µM?
output: Yes

input: hey, is IC50 for COc1ccc(-n2nc(CCOC(=O)NO)c(Br)c2-c2ccc(C)cc2)cc1 [2-K] lower than 0.1 µM or not?
output: No

input: Consider the molecule COc1ccc(-n2nc(CCCOC(=O)N(C)O)cc2-c2ccc(Cl)cc2)cc1 [3-B] . Is its IC50 strictly less than 0.1 µM?
output: No

input: IC50 under 0.1 µM? Item: COc1ccc(-n2nc(CCCOC(=O)N(O)C(C)C)c(Cl)c2-c2ccc(Cl)cc2)cc1 [3-E]
output: Yes

input: Decide: IC50 of COc1ccc(-n2nc(COC(=O)N(C)O)cc2-c2ccc(Cl)cc2)cc1 [1-B] strictly below 0.1 µM?
output: No

input: Please state whether IC50 is below 0.1 µM for COc1ccc(-n2nc(COC(=O)N(C)O)c(Br)c2-c2ccc(Cl)cc2)cc1 [1-E]
output: No

----------
molecular target: 5-LO in intact RBL-1 cells (Rattus norvegicus); construct: 5-LO and CO in intact RBL-1 cells; endogenous in cells; assay: Procedure III: inhibition of 5-LO in intact RBL-1 cells
Assign a class from recorded IC50; defined classes: low end: < 2 µM; middle: ≥ 2 µM and < 6 µM; high end: ≥ 6 µM

input: Class for COc1ccc(-n2nc(CCOC(=O)N(O)C(C)C)c(Cl)c2-c2ccc(C)cc2)cc1 ?
output: middle

input: # classify by IC50 band: COc1ccc(-n2nc(COC(=O)NO)c(Br)c2-c2ccc(Cl)cc2)cc1
output: high end

input: State the class of the compound shown: COc1ccc(-n2nc(CCCOC(=O)N(C)O)c(Cl)c2-c2ccc(Cl)cc2)cc1
output: low end

input: Category of COc1ccc(-n2nc(COC(=O)N(C)O)c(Br)c2-c2ccc(C)cc2)cc1 :
output: middle

input: Lab note: sort COc1ccc(-n2nc(CCOC(=O)N(O)C(C)C)cc2-c2ccc(C)cc2)cc1 into the matching IC50 band.
output: low end

input: Just checking, what class would you give COc1ccc(-n2nc(CCCOC(=O)N(C)O)cc2-c2ccc(Cl)cc2)cc1 here?
output: middle

input: Please let me know in which category the item COc1ccc(-n2nc(CCOC(=O)N(C)O)c(Br)c2-c2ccc(C)cc2)cc1 belongs.
output: low end

input: Any idea which band COc1ccc(-n2nc(COC(=O)NO)c(Br)c2-c2ccc(C)cc2)cc1 is in?
output: high end

input: // return the class label for COc1ccc(-n2nc(COC(=O)N(O)C(C)C)c(Br)c2-c2ccc(C)cc2)cc1
output: middle

input: Field: class (IC50) — entry: COc1ccc(-n2nc(COC(=O)NO)c(Cl)c2-c2ccc(Cl)cc2)cc1
output: high end

input: Hi, small favor: classify COc1ccc(-n2nc(CCCOC(=O)N(O)C(C)C)c(Br)c2-c2ccc(Cl)cc2)cc1 by its IC50 when you get a moment.
output: low end

input: Which IC50 category applies to COc1ccc(-n2nc(CCOC(=O)NO)c(Br)c2-c2ccc(C)cc2)cc1 here?
output: high end

input: Which class is correct for the following compound? COc1ccc(-n2nc(COC(=O)N(O)C(C)C)cc2-c2ccc(Cl)cc2)cc1
output: high end

input: Dear colleague, I would appreciate it if you could identify the bin for COc1ccc(-n2nc(COC(=O)NO)cc2-c2ccc(C)cc2)cc1 and reply at your convenience.
output: high end

input: Class for COc1ccc(-n2nc(CCOC(=O)N(C)O)cc2-c2ccc(Cl)cc2)cc1 ?
output: low end

input: Tag the class for COc1ccc(-n2nc(CCOC(=O)N(C)O)cc2-c2ccc(C)cc2)cc1
output: low end

input: Exercise: read the entry COc1ccc(-n2nc(CCOC(=O)N(O)C(C)C)c(Cl)c2-c2ccc(Cl)cc2)cc1 and state which class it falls under.
output: middle

----------
Target: 5-LO in intact RBL-1 cells (Rattus norvegicus, UniProt P12527)
Construct: 5-LO and CO in intact RBL-1 cells; endogenous in cells
Sequence (P12527 1-673): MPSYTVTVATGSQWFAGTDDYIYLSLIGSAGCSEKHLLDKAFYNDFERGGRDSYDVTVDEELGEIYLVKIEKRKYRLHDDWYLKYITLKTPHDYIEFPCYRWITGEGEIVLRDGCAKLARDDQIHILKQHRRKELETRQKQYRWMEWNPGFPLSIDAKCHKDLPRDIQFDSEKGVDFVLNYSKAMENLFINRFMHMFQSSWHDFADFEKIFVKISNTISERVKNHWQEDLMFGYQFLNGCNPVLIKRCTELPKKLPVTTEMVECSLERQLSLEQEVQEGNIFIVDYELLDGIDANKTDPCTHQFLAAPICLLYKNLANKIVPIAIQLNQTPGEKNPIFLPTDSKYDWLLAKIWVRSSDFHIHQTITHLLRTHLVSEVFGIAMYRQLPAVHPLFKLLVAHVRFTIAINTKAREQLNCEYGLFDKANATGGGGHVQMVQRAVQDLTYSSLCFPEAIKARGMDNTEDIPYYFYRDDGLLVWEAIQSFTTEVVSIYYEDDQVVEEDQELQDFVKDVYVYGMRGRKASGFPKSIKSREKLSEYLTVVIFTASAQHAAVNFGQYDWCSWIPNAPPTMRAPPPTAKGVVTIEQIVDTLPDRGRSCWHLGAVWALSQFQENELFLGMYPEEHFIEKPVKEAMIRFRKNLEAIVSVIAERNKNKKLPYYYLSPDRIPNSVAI
Assay: Procedure III: inhibition of 5-LO in intact RBL-1 cells
Exercise: for every item that follows, state its recorded pIC50.
Scale: negative log10 of molar concentration, which is what pIC50 denotes.

input: I have this molecule here, COc1ccc(-n2nc(COC(=O)N(C)O)c(Br)c2-c2ccc(Cl)cc2)cc1 , and I need its recorded pIC50.
output: 5.92

input: Would you kindly share the measured pIC50 for COc1ccc(-n2nc(CCCOC(=O)N(O)C(C)C)c(Cl)c2-c2ccc(Cl)cc2)cc1 ?
output: 5.55

input: Given the entry COc1ccc(-n2nc(COC(=O)N(O)C(C)C)c(Cl)c2-c2ccc(Cl)cc2)cc1 , report its measured pIC50.
output: 5.63

input: Which value of pIC50 has been reported for COc1ccc(-n2nc(COC(=O)NO)c(Cl)c2-c2ccc(C)cc2)cc1 in the records?
output: 4.76

input: Could you share which pIC50 value was measured for COc1ccc(-n2nc(CCCOC(=O)N(O)C(C)C)cc2-c2ccc(Cl)cc2)cc1 ?
output: 5.71

input: # input molecule: COc1ccc(-n2nc(COC(=O)N(C)O)c(Cl)c2-c2ccc(C)cc2)cc1 ; wanted: its pIC50
output: 5.74

input: # input molecule: COc1ccc(-n2nc(COC(=O)N(O)C(C)C)c(Cl)c2-c2ccc(C)cc2)cc1 ; wanted: its pIC50
output: 5.57

input: Tell me the measured pIC50 of COc1ccc(-n2nc(CCOC(=O)N(C)O)c(Cl)c2-c2ccc(C)cc2)cc1 , please.
output: 5.97

input: Recorded pIC50 for COc1ccc(-n2nc(COC(=O)N(C)O)cc2-c2ccc(C)cc2)cc1 , please?
output: 5.44
